Experiment: melting temperature; fluorescence melt of hairpins on a sequencing array, two-state fit, raised by 9.35 °C to match UV melts
Conditions: sodium 0.088 M
value_kind: Tm (°C)
// note: answer is a bare numeric in °C

Incoming: State its Tm: GGCGGCGAAAGCCGTGCC ((((((....)))..)))
Outgoing: 57.7

Incoming: Consider the sequence GTGCCAGGAAACCGGCAC (((((.(....).))))) . State its measured Tm.
Outgoing: 59.2

Incoming: // fetch Tm given entry GATCAACGGTTGATC ((((((...))))))
Outgoing: 44.7

Incoming: Provide Tm value for the following sequence: GCAGGTTCGAAAGAATGC (((..(((....))))))
Outgoing: 30.9

Incoming: Give the reported Tm for this sequence. GAAACCGGAAACGGTTTC (((((((....)))))))
Outgoing: 65.7

Incoming: Give recorded Tm. GAAACCGGAAACAGTTTC (((((.(....).)))))
Outgoing: 30.8

Incoming: Return the recorded Tm value; entry: GCTTCAGCGAAAGCTAGC (((..(((....))))))
Outgoing: 41.2

Incoming: Let me know recorded Tm for GCTGCGGGAAACCGCAAC (.(((((....))))).) , thanks.
Outgoing: 45.9

Incoming: Tell me its Tm given GACTATCCGAAAGGAGTC (((..(((....)))))) as the entry.
Outgoing: 34.1

Incoming: Output measured Tm for this item: GTTCAAGGAAACTTGAGC (.(((((....))))).)
Outgoing: 40.1

Incoming: Could you please provide reported Tm for GCGTGGCGAAAGCAATGC ((.(.((....)).).)) ? Thanks!
Outgoing: 52.8

Incoming: Consider the sequence GTGTAATCGAAAGATCAC (((..(((....)))))) . State its measured Tm.
Outgoing: 33.8
